# Tested on: SNB-78
# protocol_details: NCI tumour cell line growth inhibition, 48 h
The source made the active and inactive calls. Rule as the data show it: active = GI50 up to about 1.1 µM and inactive = higher.
Possible outcomes: t for active, f for inactive

{"columns": ["compound", "answer_label"],
 "data": [
  ["CC(C)N(C(=O)C12C3C4C1C1C2C3C41C(=O)N(C(C)C)C(C)C)C(C)C (stereo not given)", "f"],
  ["CCOC(=O)[C@]12C3C=CC(C3)C1C(=O)C1OC12 (stereo not given in full)", "f"],
  ["Nc1ccc(C(=O)N/C(=C\\c2ccc3c(c2)OCO3)c2nc3c(O)nc(S)nc3[nH]2)cc1", "f"],
  ["CC1=CC2=C(C)C3(CC3)[C@@](C)(O)C(=O)C2=C1", "t"],
  ["O=C1Cc2ccccc2N1/N=C\\c1ccc([N+](=O)[O-])cc1", "f"]
]}

---

# Test system: NCI-H23
# protocol_details: NCI tumour cell line growth inhibition, 48 h
Calls of active or inactive are those of the source. No stated cut-off is given here; in the data, active = GI50 up to about 1.1 µM and inactive = higher.
Possible outcomes: active, inactive

{"columns": ["compound", "answer_label"],
 "data": [
  ["COc1ccc2[nH]c3c(C)c4cc[n+](COC(=O)c5ccccc5)cc4c(C)c3c2c1", "active"],
  ["c1csc(-c2sc(-c3ccsc3)cc2Cc2ccsc2)c1", "inactive"],
  ["C=C(CN(C)C)C(=O)c1ccccc1OC", "inactive"],
  ["CC(=O)CC(=O)NC=O", "inactive"],
  ["CC(=O)OCC1OC(n2cc(F)c(=O)[nH]c2=O)C(OC(C)=O)C1OC(C)=O (stereo not drawn)", "inactive"],
  ["O=c1c(O)c(-c2ccc(O)c(O)c2)oc2cc(O)ccc12 [FISETIN]", "inactive"],
  ["Nc1ccc(C(=O)N/C(=C\\c2ccc3c(c2)OCO3)c2nc3c(O)nc(S)nc3[nH]2)cc1", "inactive"],
  ["COc1cc2ccc(C(=O)O)cc2cc1OC", "inactive"],
  ["NC(=O)c1ccc(N)nc1 [6-AMINONICOTINAMIDE]", "inactive"],
  ["Cn1c(=O)n(C2(C)C[Se]C2)c2ccccc21", "inactive"],
  ["O=C1/C(=C/c2ccccc2)CN(C(=O)Oc2ccccc2)C/C1=C\\c1ccccc1", "inactive"],
  ["C#CCOC(=O)C(N)CS (stereo not drawn)", "inactive"],
  ["CCOc1ccc2nc3cc(/N=N/c4ccc(N)nc4N)ccc3c(N)c2c1", "inactive"],
  ["Cn1c2ccc(C3=NCCN3)cc2c2cc(C3=NCCN3)ccc21", "inactive"],
  ["CCC1(c2ccc(OC)c(OC)c2)CCN2C(=O)C(O)CC21 (stereo not drawn)", "inactive"],
  ["CC1(C)CCC(C)(C)C1C(=O)NC(O)C(=O)O (stereo not drawn)", "inactive"],
  ["Cc1c(-c2ccccc2)[nH]n(C2=NCCN2)c1=O", "inactive"],
  ["Cc1nc2ccccc2c(=O)n1/N=C(\\N=N\\c1ccccc1Cl)c1ccccc1Cl", "inactive"],
  ["CCCCCCCCCCCCCCCCCC(=O)OCC(COC1OC(CS(=O)(=O)O)C(O)C(O)C1O)OC(=O)CCCCCCCCCCCCCCCCC (stereo not drawn)", "inactive"],
  ["Oc1cccc(C2SCc3nc4ccccc4n32)c1 (stereo not drawn)", "inactive"],
  ["CC(C)=CCC/C(C)=C/Cc1c2c(c3oc(-c4ccc(O)c(O)c4)c(O)c(=O)c3c1O)C=CC(C)(C)O2", "inactive"],
  ["COc1ccc(/C(Cl)=C(\\C=O)c2ccccc2)cc1OC", "inactive"],
  ["Cc1c(C(=O)/C=C/c2ccc3c(c2)OCO3)[n+]([O-])c2ccccc2[n+]1[O-]", "inactive"]
]}

FYI, the data here is from ChEMBL document CHEMBL1201862.
